- Experimental Protocol: logP determination by HPLC on a reverse-phase column (EEC Directive 79/831 Annex V.A8)
- Assay type: physicochemical
- Conditions Used: reverse-phase C18 HPLC column; pH 2.3; HPLC reverse-phase C 18, 43° C., 0.1% aqueous phosphoric acid and acetonitrile
Documented chromatographic logP across a set of compounds
Measured Endpoint: chromatographic logP

1) O=C(Nc1ncncc1-c1ccc(Br)cc1)c1ccccc1Cl | 2.46
2) O=C(Nc1ncncc1-c1ccc(Cl)c(Cl)c1)c1ccccc1C(F)(F)F | 2.92
3) O=C(Nc1ncncc1-c1ccc(Br)cc1)c1ccccc1I | 2.61
4) Nc1ncncc1-c1ccc(Cl)c(Cl)c1 | 0.87
5) O=C(Nc1ncncc1-c1ccc(Cl)c(Cl)c1)c1ccccc1I | 2.89

---

- Experimental Protocol: logP determination by HPLC on a reverse-phase column (EEC Directive 79/831 Annex V.A8)
- Type: physicochemical
- Conditions Used: reverse-phase C18 HPLC column; pH 2.3; HPLC reverse-phase C 18, 43° C., 0.1% aqueous phosphoric acid and acetonitrile
Documented chromatographic logP across a set of compounds
Measured Endpoint: chromatographic logP

1. O=C(Nc1ncncc1-c1ccc(Cl)c(Cl)c1)c1ccccc1Cl [Example 10] | 2.73
2. Cc1nc(C(F)(F)F)c(C(=O)Nc2ncncc2-c2ccc(Cl)c(Cl)c2)s1 [Example 2] | 2.85
3. O=C(c1ccccc1Cl)N(C(=O)c1ccccc1Cl)c1ncncc1-c1ccc(C(F)(F)F)cc1 [Example 12] | 4.12
4. O=C(c1ccccc1Cl)N(C(=O)c1ccccc1Cl)c1ncncc1-c1ccc(Br)cc1 [Example 14] | 2.73
5. O=C(Nc1ncncc1-c1ccc(Cl)cc1)c1ccccc1C(F)(F)F [Example 1] | 2.57
6. O=C(Nc1ncncc1-c1ccc(C(F)(F)F)cc1)c1ccccc1Cl [Example 13] | 2.62
7. O=C(c1ccccc1Cl)N(C(=O)c1ccccc1Cl)c1ncncc1-c1ccc(Cl)c(Cl)c1 [Example 15] | 2.46
8. Cn1cc(C(=O)Nc2ncncc2-c2ccc(Cl)c(Cl)c2)c(C(F)(F)F)n1 [Example 19] | 2.46
